Please respond with reported inhibition at 10 µM for every item in the list.
target: hSERT (Homo sapiens (Human)); experiment: Serotonin receptor inhibitory activity evaluation (binding assay, HEK293/hSERT membranes); conditions: HEK293/hSERT membrane preparation, [3H]Paroxetin
Sequence (P31645 whole entry): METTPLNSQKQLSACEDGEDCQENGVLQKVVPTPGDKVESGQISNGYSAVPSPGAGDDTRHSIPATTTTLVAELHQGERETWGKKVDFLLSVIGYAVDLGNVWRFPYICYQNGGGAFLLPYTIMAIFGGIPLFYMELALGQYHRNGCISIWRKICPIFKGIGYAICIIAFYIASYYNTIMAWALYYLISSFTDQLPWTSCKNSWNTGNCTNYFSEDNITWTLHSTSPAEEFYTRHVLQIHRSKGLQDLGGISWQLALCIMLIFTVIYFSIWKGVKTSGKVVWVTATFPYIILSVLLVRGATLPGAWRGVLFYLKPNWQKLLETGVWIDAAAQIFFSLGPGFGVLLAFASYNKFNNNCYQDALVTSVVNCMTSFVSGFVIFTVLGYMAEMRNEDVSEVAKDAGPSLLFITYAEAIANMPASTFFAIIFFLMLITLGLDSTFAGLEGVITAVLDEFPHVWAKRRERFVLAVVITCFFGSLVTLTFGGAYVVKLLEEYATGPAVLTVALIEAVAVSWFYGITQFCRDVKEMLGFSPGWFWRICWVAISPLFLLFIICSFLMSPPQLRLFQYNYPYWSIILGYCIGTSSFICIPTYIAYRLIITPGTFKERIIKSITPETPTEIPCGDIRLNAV
Answer format: numeric, % implied, no suffix.

*Q* Report measured inhibition at 10 µM on hSERT (Homo sapiens (Human)); entry: O=C1N[C@]2(C[C@@H](F)c3cc(-c4cnn(C5CCN(C6COC6)CC5)c4)ccc32)C(=O)N1CC(=O)N(Cc1ccc(F)cn1)C1(C(F)(F)F)COC1 [Example 23]
*A* 3

*Q* Name the recorded inhibition at 10 µM of O=C1N[C@]2(C[C@@H](F)c3cc(-c4cnn(C5CN(C6COC6)C5)c4)ccc32)C(=O)N1CC(=O)N(Cc1ccc(F)cn1)C1(C(F)(F)F)COC1 [Example 7] , assay system hSERT (Homo sapiens (Human)).
*A* -1

*Q* Report inhibition at 10 µM on hSERT (Homo sapiens (Human)) for this entry: CN1CC(N(Cc2ccc(F)cn2)C(=O)CN2C(=O)N[C@]3(C[C@@H](F)c4cc(-c5cnn(C6COC6)c5)ccc43)C2=O)(C(F)(F)F)C1 [Example 24]
*A* 15

*Q* Name the recorded inhibition at 10 µM of CN1CC(N(Cc2ccc(F)cn2)C(=O)CN2C(=O)N[C@]3(C[C@@H](F)c4cc(-c5cnn(C)c5)ccc43)C2=O)(C(F)(F)F)C1 [Example 20] , assay system hSERT (Homo sapiens (Human)).
*A* -1

*Q* Please respond with reported inhibition at 10 µM (system hSERT (Homo sapiens (Human))) for CN1CC(N(Cc2ccc(F)cc2)C(=O)CN2C(=O)N[C@]3(C[C@@H](F)c4cc(-c5cnn(C)c5)ccc43)C2=O)(C(F)(F)F)C1 [Example 10] .
*A* -5

*Q* System hSERT (Homo sapiens (Human)). Read-out inhibition at 10 µM. Item CN1CC(N(Cc2ccc(F)cn2)C(=O)CN2C(=O)N[C@]3(C[C@@H](F)c4cc(-c5cnn(CC6COC6)c5)ccc43)C2=O)(C(F)(F)F)C1 [Example 25] . Report value.
*A* 2

* * *

assay: Membrane permeability test (PAMPA); format: in vitro ADME; details: pH 5.0, 37° C., read-out: pH 5.0 Pe
Reported Property: Papp at 4 h (×10⁻⁶ cm/s)
Reply with just the number (in ×10⁻⁶ cm/s).

*Q* Output Papp at 4 h of "CN1CCn2ncc(-c3ccc4c(c3)[C@H](F)C[C@]43NC(=O)N(CC(=O)N(Cc4ccc(F)cc4)C4(C(F)(F)F)COC4)C3=O)c2C1"
*A* 26.1

*Q* State its Papp at 4 h: "O=C1N[C@]2(C[C@@H](F)c3cc(-c4cnn(C5CN(C6COC6)C5)c4)ccc32)C(=O)N1CC(=O)N(Cc1ccc(F)cc1)C1(C(F)(F)F)COC1"
*A* 14.9

*Q* Answer with reported Papp at 4 h of "O=C1N[C@]2(C[C@@H](F)c3cc(-c4cnn(C5CN(C6COC6)C5)c4)ccc32)C(=O)N1CC(=O)N(Cc1ccc(F)cn1)C1(C(F)(F)F)CC(F)(F)C1"
*A* 13.3

*Q* // fetch Papp at 4 h given entry "CC(C)n1cc(-c2ccc3c(c2)[C@H](F)C[C@]32NC(=O)N(CC(=O)N(Cc3ccc(F)cn3)C3(C(F)(F)F)CN(C)C3)C2=O)cn1"
*A* 22.6

*Q* Please give measured Papp at 4 h of the following entry: "CN1CC(N(Cc2ccc(F)cc2)C(=O)CN2C(=O)N[C@]3(C[C@@H](F)c4cc(-c5cnn(C)c5)ccc43)C2=O)(C(F)(F)F)C1"
*A* 23.9

*Q* Identify measured Papp at 4 h associated with "CN1CC(N(Cc2ccc(F)cc2)C(=O)CN2C(=O)N[C@]3(CCc4cc(-c5cnn(C)c5F)ccc43)C2=O)(C(F)(F)F)C1"
*A* 29.2

*Q* Read off the recorded Papp at 4 h for "CN1CC(N(Cc2ccc(F)cc2)C(=O)CN2C(=O)N[C@]3(CCc4cc(-c5cnn(C)c5)ccc43)C2=O)(C(F)(F)F)C1"
*A* 24

*Q* State its Papp at 4 h: "CN1CC(N(Cc2ccc(F)cn2)C(=O)CN2C(=O)N[C@]3(C[C@@H](F)c4cc(-c5cnn(C(C)(C)CO)c5)ccc43)C2=O)(C(F)(F)F)C1"
*A* 0.6

*Q* Fill in reported Papp at 4 h for this entry: "O=C1N[C@]2(C[C@@H](F)c3cc(-c4cnn(C5CN(C6COC6)C5)c4)ccc32)C(=O)N1CC(=O)N(Cc1ccc(F)cc1)C1(C(F)(F)F)CC(F)(F)C1"
*A* 25.7

*Q* State, in one line, measured Papp at 4 h of "O=C1N[C@]2(C[C@@H](F)c3cc(-c4cnn(C5CN(C6COC6)C5)c4)ccc32)C(=O)N1CC(=O)N(Cc1ccc(F)cn1)C1(C(F)(F)F)COC1"
*A* 3

*Q* Consider the compound "CN1CC(N(Cc2ccc(F)cc2)C(=O)CN2C(=O)N[C@@]3(C[C@H](F)c4cc(-c5cnn(C)c5)c(F)cc43)C2=O)(C(F)(F)F)C1" and give its recorded Papp at 4 h.
*A* 25.7

*Q* Note Papp at 4 h for the compound shown: "O=C1N[C@]2(CCc3cc(-c4cnn(C5CN(C6COC6)C5)c4)ccc32)C(=O)N1CC(=O)N(Cc1ccc(F)cc1)C1(C(F)(F)F)COC1"
*A* 16.2

* * *

Give Vd for every item shown.
assay: Pharmacokinetic study in mice; type: in vivo; conditions: female, BALB/c (BALB/cAnN CrlCrlj), mouse, plasma, intravenous, 1 mg/kg, read-out: Vdss
Note: a bare number is incomplete; add the unit.

*Q* Please indicate Vd recorded for "CN1CC(N(Cc2ccc(F)cc2)C(=O)CN2C(=O)N[C@]3(C[C@@H](F)c4cc(-c5cnn(C(C)(C)C#N)c5)ccc43)C2=O)(C(F)(F)F)C1"
*A* 4.1 L/kg

*Q* For the compound "O=C1N[C@]2(C[C@@H](F)c3cc(-c4cnn(C5CN(C6COC6)C5)c4)ccc32)C(=O)N1CC(=O)N(Cc1ccc(F)cn1)C1(C(F)(F)F)CC(F)(F)C1" , give its measured Vd value.
*A* 2 L/kg

*Q* Using known records, supply Vd for "O=C1N[C@]2(CCc3cc(-c4cnn(C5CN(C6COC6)C5)c4)ccc32)C(=O)N1CC(=O)N(Cc1ccc(F)cc1)C1(C(F)(F)F)COC1"
*A* 1.8 L/kg

*Q* For the compound "CN1CC(N(Cc2ccc(F)cc2)C(=O)CN2C(=O)N[C@]3(CCc4cc(-c5cnn(C)c5)ccc43)C2=O)(C(F)(F)F)C1" , report Vd.
*A* 1.6 L/kg

*Q* Find the measured Vd of "CN1CC(N(Cc2ccc(F)cc2)C(=O)CN2C(=O)N[C@]3(C[C@@H](F)c4cc(-c5cnn(C)c5)ccc43)C2=O)(C(F)(F)F)C1" and report it.
*A* 1.8 L/kg

*Q* Using known records, supply Vd for "O=C1N[C@]2(C[C@@H](F)c3cc(-c4cnn(C5CN(C6COC6)C5)c4)ccc32)C(=O)N1CC(=O)N(Cc1ccc(F)cc1)C1(C(F)(F)F)COC1"
*A* 2 L/kg

*Q* Please report Vd for the following compound: "O=C1N[C@]2(C[C@@H](F)c3cc(-c4cnn(C5CN(C6COC6)C5)c4)ccc32)C(=O)N1CC(=O)N(Cc1ccc(F)cn1)C1(C(F)(F)F)COC1"
*A* 1.3 L/kg

*Q* Input "CN1CC(N(Cc2ccc(F)cn2)C(=O)CN2C(=O)N[C@]3(C[C@@H](F)c4cc(-c5cnn(C)c5)ccc43)C2=O)(C(F)(F)F)C1" , output reported Vd.
*A* 1.6 L/kg

*Q* Look up and report measured Vd for this entry: "CN1CC(N(Cc2ccc(F)cn2)C(=O)CN2C(=O)N[C@]3(C[C@@H](F)c4cc(-c5cnn(C6COC6)c5)ccc43)C2=O)(C(F)(F)F)C1"
*A* 2.1 L/kg

*Q* Give Vd for "O=C1N[C@]2(C[C@@H](F)c3cc(-c4cnn(C5CN(C6COC6)C5)c4)ccc32)C(=O)N1CC(=O)N(Cc1ccc(F)cc1)C1(C(F)(F)F)CC(F)(F)C1"
*A* 1.2 L/kg

*Q* Respond only with Vd recorded for "O=C1N[C@]2(CCc3cc(-c4cnn(C5CN(C6COC6)C5)c4)ccc32)C(=O)N1CC(=O)N(Cc1ccc(F)cc1)C1(C(F)(F)F)CC(F)(F)C1"
*A* 2.1 L/kg

*Q* Look up Vd of "O=C1N[C@]2(C[C@@H](F)c3cc(-c4cnn(C5CCN(C6COC6)CC5)c4)ccc32)C(=O)N1CC(=O)N(Cc1ccc(F)cn1)C1(C(F)(F)F)COC1" and report it.
*A* 1.8 L/kg

* * *

Test: Membrane permeability test (PAMPA)
Assay type: in vitro ADME
Settings: pH 7.4, 37° C., read-out: pH 7.4 Pe
Experimental: The membrane permeability of the test compound was tested by parallel artificial membrane permeability assay (PAMPA) as follows. […] Both plates were overlapped and incubated at 37° C. for 4 hours, after which the UV of the solutions on the acceptor side and donor side was measured using a UV plate reader (190-500 nm). Compounds with poor UV absorption were measured using LC-MS. The permeability coefficient Pe (10^−6 cm/sec) of the drug was calculated using the following equation.
Reported Property: Papp at 4 h (×10⁻⁶ cm/s)
Answer with a number only, understood to be in ×10⁻⁶ cm/s.

*Q* Supply reported Papp at 4 h belonging to this molecule: "O=C1N[C@]2(C[C@@H](F)c3cc(-c4cnn(C5CCN(C6COC6)CC5)c4)ccc32)C(=O)N1CC(=O)N(Cc1ccc(F)cn1)C1(C(F)(F)F)COC1"
*A* 7

*Q* Fill in Papp at 4 h for record "CN1CC(N(Cc2ccc(F)cn2)C(=O)CN2C(=O)N[C@]3(C[C@@H](F)c4cc(-c5cnn(C6COC6)c5)ccc43)C2=O)(C(F)(F)F)C1"
*A* 8.2

*Q* Name the recorded Papp at 4 h of the item "O=C1N[C@]2(CCc3cc(-c4cnn(C5CN(C6COC6)C5)c4)ccc32)C(=O)N1CC(=O)N(Cc1ccc(F)cn1)C1(C(F)(F)F)CC(F)(F)C1" in your answer.
*A* 14.3
